tested system: rat B1R (bradykinin receptor 1) (Rattus norvegicus)
Construct: expressed in transfected cells; host or cells: CHO K1 cells
Sequence (P97583 1-337): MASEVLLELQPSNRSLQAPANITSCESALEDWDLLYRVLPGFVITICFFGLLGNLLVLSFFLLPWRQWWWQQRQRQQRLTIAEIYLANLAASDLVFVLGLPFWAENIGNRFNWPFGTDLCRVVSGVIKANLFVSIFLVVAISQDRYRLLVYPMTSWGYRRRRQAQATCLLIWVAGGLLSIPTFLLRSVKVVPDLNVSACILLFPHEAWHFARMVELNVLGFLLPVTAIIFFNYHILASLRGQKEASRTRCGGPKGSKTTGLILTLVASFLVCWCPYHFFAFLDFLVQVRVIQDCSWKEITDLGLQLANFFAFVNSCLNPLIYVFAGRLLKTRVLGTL
experiment summary: FLIPR Ca2+ assay (Fluo-4) on CHO K1 cells stably transfected with the B1R gene of the rat (rB1R cells): % inhibition at 10 μM / IC50, agonist Des-Arg9-bradykinin
Type: cell-based
condition info: CHO-K1, rat B1R
endpoint label: inhibition at 10 µM (%)

| compound | obs value |
| --- | --- |
| CCCNC(=O)N1CCC2(CC1)CCN(C(=O)c1ccc3c(c1)C(N(C(=O)c1ccccc1Cl)C1CC1)CC3)C2 (stereo not shown) [IND_CC-712] | 76 |
| CC1(C)CC(NS(=O)(=O)c2ccc(Cl)cc2Cl)c2cc(C(=O)N3CCC4(CC3)CCN(c3ccncc3)CC4)ccc21 (stereo not shown) [IND_CC-335] | 102 |
| O=C(NC1CCc2ccc(C(=O)N3CCC4(CCN(CCc5ccccc5)CC4)C3)cc21)c1cc(C(F)(F)F)ccc1Cl (stereo not shown) [IND_CC-690] | 85 |
| O=C(NC1CCc2ccc(C(=O)N3CCC4(CCN(c5ccncc5)CC4)C3)cc21)c1c(F)cccc1F (stereo not shown) [IND_CC-386] | 104 |
| O=C(N[C@@H]1CCc2cc(F)c(C(=O)N3CCC4(CC3)CCN(c3ccncc3)C4)cc21)c1ccccc1Cl [Example H-89] | 103 |
| CCn1cc(CN2CCC3(CC2)CCN(C(=O)c2ccc4c(c2)C(NC(=O)c2cc(C(F)(F)F)ccc2Cl)CC4)CC3)c(C)n1 (stereo not shown) [IND_CC-693] | 68 |
| O=C(NC1CCc2ccc(C(=O)N3CCC4(CCN(CCCc5ccc(F)cc5)CC4)CC3)cc21)c1cc(C(F)(F)F)ccc1Cl (stereo not shown) [IND_CC-703] | 70 |

---

tested system: rat B1R (bradykinin receptor 1) (Rattus norvegicus, UniProt P97583)
Construct: expressed in transfected cells; host or cells: CHO K1 cells
experiment summary: FLIPR Ca2+ assay (Fluo-4) on CHO K1 cells stably transfected with the B1R gene of the rat (rB1R cells): % inhibition at 10 μM / IC50, agonist Des-Arg9-bradykinin
Format: cell-based
condition info: CHO-K1, rat B1R
Measured inhibition at 10 µM values are reported for all entries that follow.

| molecule | tested system | inhibition at 10 µM, % |
| --- | --- | --- |
| O=C(NC1CCc2ccc(C(=O)N3CCC4(CCN(Cc5ccc6ncccc6c5)CC4)CC3)cc21)c1cc(Cl)ccc1F (centres unmarked) [IND_CC-677] | rat B1R (bradykinin receptor 1) (Rattus norvegicus, UniProt P97583) | 72 |
| O=C(NC1CCc2ccc(C(=O)N3CCC4(CCN(Cc5ccc6ncccc6c5)CC4)C3)cc21)c1c(F)cccc1Cl (centres unmarked) [IND_CC-774] | rat B1R (bradykinin receptor 1) (Rattus norvegicus, UniProt P97583) | 81 |
| N#Cc1ccc(C(=O)N2CCC3(CC2)CCN(C(=O)c2ccc4c(c2)C(NC(=O)c2ccccc2Cl)CC4)CC3)cc1 (centres unmarked) [IND_CC-596] | rat B1R (bradykinin receptor 1) (Rattus norvegicus, UniProt P97583) | 94 |
| O=C(c1ccc2c(c1)[C@@H](N1Cc3cccc(Cl)c3C1=O)CCC2)N1CCC2(CCN(c3ccncc3)CC2)C1 [Example H-15] | rat B1R (bradykinin receptor 1) (Rattus norvegicus, UniProt P97583) | 11 |
| O=C(NC1CCc2ccc(C(=O)N3CCC4(CCN(c5ccncc5)CC4)C3)cc21)c1cc(F)ccc1Cl (centres unmarked) [IND_CC-253] | rat B1R (bradykinin receptor 1) (Rattus norvegicus, UniProt P97583) | 100 |
| O=C(NC1CCc2ccc(C(=O)N3CCC4(CCN(c5ccc(C(F)(F)F)cn5)CC4)C3)cc21)c1ccccc1Cl (centres unmarked) [Example H-48] | rat B1R (bradykinin receptor 1) (Rattus norvegicus, UniProt P97583) | 97 |
| CC1(C)CC(NC(=O)c2sccc2Cl)c2cc(C(=O)N3CCC4(CC3)CCN(c3ccncc3)CC4)ccc21 (centres unmarked) [Ind_CC-055] | rat B1R (bradykinin receptor 1) (Rattus norvegicus, UniProt P97583) | 102 |
| O=C(c1ccc2c(c1)C(NS(=O)(=O)c1cc(Cl)ccc1Cl)CC2)N1CCC2(CCN(c3ccncc3)CC2)C1 (centres unmarked) [IND_CC-357] | rat B1R (bradykinin receptor 1) (Rattus norvegicus, UniProt P97583) | 95 |
| COc1ccc(S(=O)(=O)N[C@@H]2CCc3ccc(C(=O)N4CCC5(CCN(c6ccncc6)CC5)C4)cc32)c(C(F)(F)F)c1 [Example H-144] | rat B1R (bradykinin receptor 1) (Rattus norvegicus, UniProt P97583) | 104 |
| O=C(N[C@H]1CCc2c(C(=O)N3CCC4(CC3)CCN(c3ccncc3)CC4)cccc21)c1ccccc1Cl [Example H-163] | rat B1R (bradykinin receptor 1) (Rattus norvegicus, UniProt P97583) | 105 |
| COc1cc(C)c(C(=O)NC2CCc3ccc(C(=O)N4CCC5(CC4)CCN(c4ccncc4)C5)cc32)c(C)c1 (centres unmarked) [Ind_CC-094] | rat B1R (bradykinin receptor 1) (Rattus norvegicus, UniProt P97583) | 65 |
| O=C(NC1CCc2ccc(C(=O)N3CCC4(CCN(Cc5cc(F)ccc5F)CC4)CC3)cc21)c1cc(C(F)(F)F)ccc1Cl (centres unmarked) [IND_CC-646] | rat B1R (bradykinin receptor 1) (Rattus norvegicus, UniProt P97583) | 66 |
| O=C(Nc1c(Cl)cccc1Cl)N1CCC2(CC1)CCN(C(=O)c1ccc3c(c1)C(N(C(=O)c1ccccc1Cl)C1CC1)CC3)C2 (centres unmarked) [IND_CC-718] | rat B1R (bradykinin receptor 1) (Rattus norvegicus, UniProt P97583) | 52 |
| O=C(c1ccc2c(c1)C(N(C(=O)c1ccccc1Cl)C1CC1)CC2)N1CCC2(CC1)CCN(c1cccnc1)CC2 (centres unmarked) [Ind_CC-114] | rat B1R (bradykinin receptor 1) (Rattus norvegicus, UniProt P97583) | 101 |
